Data credit: the kinase profiling compilation of Christmann-Franck et al. (2016)

Biological target: UniProt:P78356
Sequence (P78356 whole entry, looked up): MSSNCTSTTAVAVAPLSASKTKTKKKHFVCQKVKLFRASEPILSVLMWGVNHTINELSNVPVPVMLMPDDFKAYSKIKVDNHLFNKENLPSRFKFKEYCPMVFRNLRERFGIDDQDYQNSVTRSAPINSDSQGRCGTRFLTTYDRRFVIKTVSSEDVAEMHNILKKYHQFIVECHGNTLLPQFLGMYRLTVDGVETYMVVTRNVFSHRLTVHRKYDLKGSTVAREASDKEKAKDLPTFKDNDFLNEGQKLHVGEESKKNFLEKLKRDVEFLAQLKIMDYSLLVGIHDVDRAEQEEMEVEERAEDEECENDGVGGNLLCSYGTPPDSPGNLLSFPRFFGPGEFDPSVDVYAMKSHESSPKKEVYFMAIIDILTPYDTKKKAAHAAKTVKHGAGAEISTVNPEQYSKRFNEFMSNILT
Test: KINOMEscan competition binding
Conditions: compound 10.0 µM
VALUE TYPE: kinase still bound, per cent of control (%)
One number for each entry, in %.

INSERT INTO results (compound, value_type, observed_measurement) VALUES
  ('COc1cc(N2CCC(C(N)=O)CC2)ccc1Nc1nc(N)c(Cl)c(Nc2ccccc2S(=O)(=O)C(C)C)n1', 'kinase still bound, per cent of control', 100),
  ('Cc1cn(-c2cc(C(=O)Nc3ccc(C)c(NC(=O)c4ccno4)c3)cc(C(F)(F)F)c2)cn1', 'kinase still bound, per cent of control', 100),
  ('CCOc1cc(N2CCC(O)CC2)ccc1Nc1ncc2c(n1)N(C)c1ccccc1C(=O)N2C', 'kinase still bound, per cent of control', 100),
  ('N#Cc1cc(-c2ccnc(Nc3ccc(-n4cnc(-c5cccnc5)n4)cc3)n2)cc(N2CCOCC2)c1', 'kinase still bound, per cent of control', 6.9);

Could you tell me kinase still bound, per cent of control for each of these compounds? They are listed below.
1. CCc1nc(-c2cccc(C)c2)c(-c2ccnc(NC(=O)c3ccccc3)c2)s1
2. COc1cc2ncnc(Nc3cccc(Cl)c3)c2cc1OC
3. CNC(=O)Nc1ccc(-c2nc(N3CC4CCC(C3)O4)c3cnn(C4CCC5(CC4)OCCO5)c3n2)cc1
4. C=CC(=O)Nc1ccc(C(=O)c2sc(Nc3ccc(N4CCN(C)CC4)cc3OC)nc2N)cc1

Solution:
[93, 97, 100, 32]

Could you tell me kinase still bound, per cent of control for each of these compounds? They are listed below.
1. CC(=O)c1c(C)c2cnc(Nc3ccc(N4CCNCC4)cn3)nc2n(C2CCCC2)c1=O
2. CCN(CCO)CCCOc1ccc2c(Nc3cc(CC(=O)Nc4cccc(F)c4)[nH]n3)ncnc2c1

Solution:
1: 18; 2: 100

Could you tell me kinase still bound, per cent of control for each of these compounds? They are listed below.
1. CC1=C(C(=O)Nc2cc3cn[nH]c3cc2F)C(c2ccc(C(F)(F)F)cc2)CC(=O)N1 (stereo not drawn)
2. COc1cc(C)c(Sc2cnc(NC(=O)c3ccc(CNC(C)C(C)C)cc3)s2)cc1C(=O)N1CCN(C(C)=O)CC1 (stereo not drawn)
3. CCCS(=O)(=O)Nc1ccc(F)c(C(=O)c2c[nH]c3ncc(Cl)cc23)c1F
4. O=c1[nH]c2ccccc2n1C1CCN(Cc2ccc(-c3nc4cc5[nH]cnc5cc4nc3-c3ccccc3)cc2)CC1
5. COc1cc2c(Nc3ccc(NC(=O)c4ccccc4)cc3)ncnc2cc1OCCCN1CCOCC1

Solution:
[100, 100, 100, 88, 100]

Could you tell me kinase still bound, per cent of control for each of these compounds? They are listed below.
1. CCN1CCN(Cc2ccc(NC(=O)c3ccc(C)c(/C=C/c4cnc5[nH]ccc5c4OC)c3)cc2C(F)(F)F)CC1
2. COc1ccc(N(C(=O)Oc2cc(C(=O)Nc3cccc(C(F)(F)F)c3)ccc2C)c2ccnc(Nc3ccc(N4CCN(C)CC4)cc3)n2)c(OC)c1
3. N#C/C(=C1/Nc2ccccc2S1)c1ccnc(NCCc2cccnc2)n1

Solution:
1. 0.4
2. 100
3. 26
